Target: recombinant human Car1 (Homo sapiens, UniProt P00915)
Sequence (P00915 whole entry): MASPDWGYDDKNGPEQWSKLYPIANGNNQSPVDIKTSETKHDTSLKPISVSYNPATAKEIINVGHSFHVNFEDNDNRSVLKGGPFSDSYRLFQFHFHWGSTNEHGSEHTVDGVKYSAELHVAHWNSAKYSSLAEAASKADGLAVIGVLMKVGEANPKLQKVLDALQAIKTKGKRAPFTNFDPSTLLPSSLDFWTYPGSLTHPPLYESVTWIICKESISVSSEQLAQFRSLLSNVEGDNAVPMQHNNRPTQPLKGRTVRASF
Test: Stopped-flow assay of Car1 enzyme inhibition (IC50)
quantity.kind: pIC50
Worth noting: pIC50 values are minus log10 of concentrations stated in mol/L.

Answered examples (3):
compound="NS(=O)(=O)c1ccc(C2(O)C(=O)N(Cc3ccc(N4CCOCC4)cc3)c3ccccc32)cc1 (stereo not drawn) [NEM-14A]" quantity_kind=pIC50 assay_result=7.47
compound="NS(=O)(=O)c1ccc(C2(O)C(=O)N(Cc3cc[n+]([O-])cc3)c3ccccc32)cc1 (stereo not drawn) [NEM-10A]" quantity_kind=pIC50 assay_result=7.47
compound="NS(=O)(=O)c1ccc(C2(O)C(=O)N(Cc3ccc(-c4ccncc4)cc3)c3ccccc32)cc1 (stereo not drawn) [NEM-23A]" quantity_kind=pIC50 assay_result=7.11

Now look at this one.
// fetch pIC50; item: COc1ccc(CN2C(=O)C(O)(c3ccc(S(N)(=O)=O)cc3)c3ccccc32)cc1 (stereo not drawn) ; system: recombinant human Car1 (Homo sapiens, UniProt P00915)
10.36
